- Tested on: Bscl2-GFP
- testDetails: ToxTracker genotoxicity assay, Bscl2-GFP reporter induction
- measurementConditions: GFP induction vs vehicle at 50% cytotoxicity; 24 h exposure, no S9
valueType: Genotoxicity test, Without S9 rat liver extract, Bscl 2, 50 (fold)

- molecule: "CCCCCCCCCC(=O)OCC(CN1CC1C)OC(=O)NCCCCCCn1c(=O)n(CCCCCCNC(=O)OC(COC(=O)CCCCCCCCC)CN2CC2C)c(=O)n(CCCCCCNC(=O)OC(COC(=O)CCCCCCCCC)CN2CC2C)c1=O (stereo not drawn)"
  targetSystem: "Bscl2-GFP"
  valueMeasured: 1.0
- molecule: "CCCCOCC(CN1CC1C)OC(=O)Nc1ccc(C)c(NC(=O)OC(COCCCC)CN2CC2C)c1 (stereo not drawn) [Comp. Ex. 11, reference compound]"
  targetSystem: "Bscl2-GFP"
  valueMeasured: 1.9
- molecule: "CCCCCCCCCC(=O)OCC(CN1CC1C)OC(=O)NC1CCC(CC2CCC(NC(=O)OC(COC(=O)CCCCCCCCC)CN3CC3C)CC2)CC1 (stereo not drawn)"
  targetSystem: "Bscl2-GFP"
  valueMeasured: 1.2
- molecule: "CCCCOCC(CN1CC1C)OC(=O)NC(C)(C)c1cccc(C(C)(C)NC(=O)OC(COCCCC)CN2CC2C)c1 (stereo not drawn)"
  targetSystem: "Bscl2-GFP"
  valueMeasured: 1.3
- molecule: "CC(CN1CC1C)OC(=O)NCC1(C)CC(NC(=O)OC(C)CN2CC2C)CC(C)(C)C1 (stereo not drawn) [Comp. Ex. 7, reference compound]"
  targetSystem: "Bscl2-GFP"
  valueMeasured: 2.4
- molecule: "CC(CN1CC1C)OC(=O)NC(C)(C)c1cccc(C(C)(C)NC(=O)OC(C)CN2CC2C)c1 (stereo not drawn) [Comp. Ex. 8, reference compound]"
  targetSystem: "Bscl2-GFP"
  valueMeasured: 2.3
- molecule: "CCCCOCC(CN1CC1C)OC(=O)NCCCCCCNC(=O)OC(COCCCC)CN1CC1C (stereo not drawn) [Comp. Ex. 10, reference compound]"
  targetSystem: "Bscl2-GFP"
  valueMeasured: 1.6
- molecule: "COCCOCCOCCOCCOCCOCCOCCOCCOCCOCCOCCOCCOCCOCC(CN1CC1C)OC(=O)NCCCCCCn1c(=O)n(CCCCCCNC(=O)OC(COCCOCCOCCOCCOCCOCCOCCOCCOCCOCCOCCOCCOCCOC)CN2CC2C)c(=O)n(CCCCCCNC(=O)OC(COCCOCCOCCOCCOCCOCCOCCOCCOCCOCCOCCOCCOCCOC)CN2CC2C)c1=O (stereo not drawn)"
  targetSystem: "Bscl2-GFP"
  valueMeasured: 1.4
- molecule: "CC(CN1CC1C)OC(=O)NCCCCCCNC(=O)OC(C)CN1CC1C (stereo not drawn) [Comp. Ex. 6, reference compound]"
  targetSystem: "Bscl2-GFP"
  valueMeasured: 2.0
- molecule: "CCCCOCC(CN1CC1C)OC(=O)NCCCCCCn1c(=O)n(CCCCCCNC(=O)OC(COCCCC)CN2CC2C)c(=O)n(CCCCCCNC(=O)OC(COCCCC)CN2CC2C)c1=O (stereo not drawn)"
  targetSystem: "Bscl2-GFP"
  valueMeasured: 1.1
- molecule: "CCCCOCC(CN1CC1C)OC(=O)NC1CCC(CC2CCC(NC(=O)OC(COCCCC)CN3CC3C)CC2)CC1 (stereo not drawn)"
  targetSystem: "Bscl2-GFP"
  valueMeasured: 1.0
- molecule: "CCCCOCC(CN1CC1C)OC(=O)NCCCCCC/N=c1\\oc(=O)n(CCCCCCNC(=O)OC(COCCCC)CN2CC2C)c(=O)n1CCCCCCNC(=O)OC(COCCCC)CN1CC1C (stereo not drawn)"
  targetSystem: "Bscl2-GFP"
  valueMeasured: 0.9
- molecule: "CC(CN1CC1C)OC(=O)NCCCCCC/N=c1\\oc(=O)n(CCCCCCNC(=O)OC(C)CN2CC2C)c(=O)n1CCCCCCNC(=O)OC(C)CN1CC1C (stereo not drawn)"
  targetSystem: "Bscl2-GFP"
  valueMeasured: 0.9
- molecule: "CCCCC(CC)COCC(CN1CC1C)OC(=O)NCCCCCCn1c(=O)n(CCCCCCNC(=O)OC(COCC(CC)CCCC)CN2CC2C)c(=O)n(CCCCCCNC(=O)OC(COCC(CC)CCCC)CN2CC2C)c1=O (stereo not drawn)"
  targetSystem: "Bscl2-GFP"
  valueMeasured: 0.7
- molecule: "CC(CN1CC1C)OC(=O)NC1CCC(CC2CCC(NC(=O)OC(C)CN3CC3C)CC2)CC1 (stereo not drawn) [Comp. Ex. 9, reference compound]"
  targetSystem: "Bscl2-GFP"
  valueMeasured: 2.2
- molecule: "Cc1ccccc1OCC(CN1CC1C)OC(=O)NCCCCCCn1c(=O)n(CCCCCCNC(=O)OC(COc2ccccc2C)CN2CC2C)c(=O)n(CCCCCCNC(=O)OC(COc2ccccc2C)CN2CC2C)c1=O (stereo not drawn)"
  targetSystem: "Bscl2-GFP"
  valueMeasured: 1.6
- molecule: "C=CCOCC(CN1CC1C)OC(=O)NCCCCCCn1c(=O)n(CCCCCCNC(=O)OC(COCC=C)CN2CC2C)c(=O)n(CCCCCCNC(=O)OC(COCC=C)CN2CC2C)c1=O (stereo not drawn)"
  targetSystem: "Bscl2-GFP"
  valueMeasured: 1.2
- molecule: "CCCCCCCCCC(=O)OCC(CN1CC1C)OC(=O)NC(C)(C)c1cccc(C(C)(C)NC(=O)OC(COC(=O)CCCCCCCCC)CN2CC2C)c1 (stereo not drawn)"
  targetSystem: "Bscl2-GFP"
  valueMeasured: 0.9
